Catalogue of molecules with associated IC50
- systemTested: LiTryS (Leishmania infantum trypanothione synthetase) (Leishmania infantum)
- Sequence (A4I2Z3 1-652): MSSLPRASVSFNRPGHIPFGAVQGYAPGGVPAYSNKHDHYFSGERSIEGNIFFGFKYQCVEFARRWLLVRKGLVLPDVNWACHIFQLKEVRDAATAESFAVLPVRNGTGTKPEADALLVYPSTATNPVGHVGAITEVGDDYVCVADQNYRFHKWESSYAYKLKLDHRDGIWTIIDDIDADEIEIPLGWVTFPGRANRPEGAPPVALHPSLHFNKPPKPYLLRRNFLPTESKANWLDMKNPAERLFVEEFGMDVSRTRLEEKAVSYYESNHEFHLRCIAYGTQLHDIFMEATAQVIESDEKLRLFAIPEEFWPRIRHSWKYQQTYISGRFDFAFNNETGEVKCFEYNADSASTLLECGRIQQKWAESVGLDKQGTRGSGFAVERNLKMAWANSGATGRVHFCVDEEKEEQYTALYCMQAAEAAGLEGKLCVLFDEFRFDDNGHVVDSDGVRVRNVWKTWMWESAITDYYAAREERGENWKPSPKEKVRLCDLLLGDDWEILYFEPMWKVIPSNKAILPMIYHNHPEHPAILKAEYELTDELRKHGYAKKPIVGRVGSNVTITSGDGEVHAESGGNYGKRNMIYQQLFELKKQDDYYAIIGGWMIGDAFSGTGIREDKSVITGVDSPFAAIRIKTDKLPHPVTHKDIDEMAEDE
- procedureText: TryS activity end-point assay
- Type: biochemical
- measurementSetup: IC50 value, LiTryS, ± 2σ; ∼30 assumed for 50 ± 5% inhibition at 30 µM

Here's what some known entries look like.
molecule	IC50
Cl.O=C(CN1C(=O)Cc2c([nH]c3ccc(Br)cc23)-c2ccc(Cl)cc21)N1CCNCC1 [Compound 20]	300 nM
CC(C)(C)OC(=O)N1CCN(CCNC(=O)CN2C(=O)Cc3c([nH]c4ccc(Br)cc34)-c3ccc(Cl)cc32)CC1 [Compound 34]	~30000 nM
COC(=O)CN1C(=O)Cc2c([nH]c3ccc(Br)cc23)-c2ccc(Cl)cc21 [Compound 4]	3000 nM
NCCCCNC(=O)CN1C(=O)Cc2c([nH]c3ccc(Br)cc23)-c2ccc(Cl)cc21 [Compound 35]	400 nM
O=C(CN1C(=O)Cc2c([nH]c3ccc(Br)cc23)-c2ccc(Cl)cc21)NC1=NCCS1 [Compound 17]	~30000 nM
CC(C)(C)NC(=O)CN1C(=O)Cc2c([nH]c3ccc(Br)cc23)-c2ccc(Cl)cc21 [Compound 15]	2300 nM

Entry under review: O=C(CN1C(=O)Cc2c([nH]c3ccc(Br)cc23)-c2ccc(Cl)cc21)NCCN1CCCCC1 [Compound 31] . Reported IC50?
800 nM

Next up: CNC(=O)CN1C(=O)Cc2c([nH]c3ccc(Br)cc23)-c2ccc(Cl)cc21 [Compound 9]
800 nM
